# Tested on: redroot pigweed
# TEST METHOD NOTES: Test A pre-/postemergence greenhouse test
# Format: in vivo, Amaranthus retroflexus
# PARTICULARS: Preemergence, 125 g ai/ha; 0 to 100 scale, 0 no effect, 100 complete control

- MOLECULE: "Cn1nc(C(F)(F)F)c(CS(=O)(=O)c2cc(C(C)(C)C)cc[n+]2[O-])c1OCC(F)(F)F"
  Pigweed plant response rating: 60
- MOLECULE: "Cn1nc(OC(F)F)c(C[S+]([O-])c2cccc[n+]2[O-])c1C(F)(F)F (stereo not drawn)"
  Pigweed plant response rating: 60
- MOLECULE: "Cn1nc(C(F)(F)F)c(CS(=O)(=O)c2cc(Br)cc[n+]2[O-])c1Cl"
  Pigweed plant response rating: 0
- MOLECULE: "Cc1cc[n+]([O-])c(S(=O)(=O)Cc2c(C(F)(F)C(F)(F)F)nn(C)c2OCC(F)(F)F)c1"
  Pigweed plant response rating: 100
- MOLECULE: "Cn1nc(C(F)(F)F)c(C[S+]([O-])c2cc(F)cc[n+]2[O-])c1Cl (racemic)"
  Pigweed plant response rating: 100
- MOLECULE: "CCc1cc[n+]([O-])c([S+]([O-])Cc2c(C(F)(F)F)nn(C)c2OC(F)F)c1 (stereo not drawn)"
  Pigweed plant response rating: 100
- MOLECULE: "CC(c1c(C(F)(F)F)nn(C)c1Cl)S(=O)(=O)c1cccc[n+]1[O-] (stereo not drawn)"
  Pigweed plant response rating: 100
- MOLECULE: "Cc1cc([S+]([O-])Cc2c(C(F)(F)F)nn(C)c2OCC(F)(F)F)[n+]([O-])cc1Cl (stereo not drawn)"
  Pigweed plant response rating: 90
- MOLECULE: "Cc1cc[n+]([O-])c(S(=O)(=O)Cc2c(C(F)(F)F)nn(C)c2OC(C)C(F)(F)F)c1 (stereo not drawn)"
  Pigweed plant response rating: 90
- MOLECULE: "Cn1nc(C(F)(F)F)c(C[S+]([O-])c2ccc(F)c[n+]2[O-])c1Cl (stereo not drawn)"
  Pigweed plant response rating: 90
- MOLECULE: "CC(c1c(C(F)(F)F)nn(CC(F)(F)F)c1Cl)S(=O)(=O)c1ccc(Cl)c[n+]1[O-] (stereo not drawn)"
  Pigweed plant response rating: 90
- MOLECULE: "Cc1cc[n+]([O-])c(S(=O)(=O)Cc2c(C(F)(F)F)nn(C)c2OCC(F)(F)F)c1"
  Pigweed plant response rating: 100
- MOLECULE: "Cn1nc(C(F)(F)F)c(C[S+]([O-])c2cccc[n+]2[O-])c1Cl (stereo not drawn)"
  Pigweed plant response rating: 100
- MOLECULE: "CCOc1ccc(S(=O)(=O)Cc2c(C(F)(F)F)nn(C)c2OC(F)F)[n+]([O-])c1"
  Pigweed plant response rating: 0
- MOLECULE: "Cn1nc(C(F)(F)F)c(C[S+]([O-])c2ccc(Cl)c[n+]2[O-])c1OC(F)F (stereo not drawn)"
  Pigweed plant response rating: 100
- MOLECULE: "O=S(=O)(Cc1c(C(F)(F)F)nn(CC(F)(F)F)c1Cl)c1ccc(Cl)c[n+]1[O-]"
  Pigweed plant response rating: 80
- MOLECULE: "Cn1nc(C(F)(F)F)c(C(Cl)S(=O)(=O)c2cccc[n+]2[O-])c1OC(F)F (stereo not drawn)"
  Pigweed plant response rating: 100
- MOLECULE: "Cn1nc(C(F)(F)F)c(CS(=O)(=O)c2ccc(F)c[n+]2[O-])c1Cl"
  Pigweed plant response rating: 100
- MOLECULE: "Cn1nc(C(F)(F)F)c(CS(=O)(=O)c2ccc(Cl)c[n+]2[O-])c1Cl"
  Pigweed plant response rating: 90
- MOLECULE: "Cc1cc[n+]([O-])c(S(=O)(=O)Cc2c(C(F)(F)F)nn(C)c2OCC(F)(F)C(F)(F)F)c1"
  Pigweed plant response rating: 20
- MOLECULE: "CC(c1c(C(F)(F)F)nn(CC(F)(F)F)c1Cl)[S+]([O-])c1cccc[n+]1[O-] (stereo not drawn)"
  Pigweed plant response rating: 10
- MOLECULE: "C#CCOc1c(C[S+]([O-])c2cccc[n+]2[O-])c(C(F)(F)F)nn1C (stereo not drawn)"
  Pigweed plant response rating: 70
- MOLECULE: "CCn1nc(C(F)(F)F)c(C[S+]([O-])c2cccc[n+]2[O-])c1OCC(F)(F)F (racemic)"
  Pigweed plant response rating: 100
- MOLECULE: "CC(Oc1c(C[S+]([O-])c2cccc[n+]2[O-])c(C(F)(F)F)nn1C)C(F)(F)F (stereo not drawn)"
  Pigweed plant response rating: 70
- MOLECULE: "CC(c1c(C(F)(F)F)nn(C)c1OC(F)F)S(=O)(=O)c1ccc(Br)c[n+]1[O-] (racemic)"
  Pigweed plant response rating: 100
- MOLECULE: "Cn1nc(C(F)(F)F)c(CS(=O)(=O)c2cc(Cl)cc[n+]2[O-])c1Cl"
  Pigweed plant response rating: 0
- MOLECULE: "Cn1nc(C(F)(F)F)c(C[S+]([O-])c2ccc(F)c[n+]2[O-])c1OC(F)F (stereo not drawn)"
  Pigweed plant response rating: 80

Hello, the source for this data is patent US20100298141A1, in case you need it.
